Parameter: IC50. Scope: all listed entries.
Tested on: CEM cells HIV-1 protection, formazan growth assay
methodDescription: NCI AIDS Antiviral Assay
experimentalConditions: measured here: growth of uninfected CEM cells
readoutKind: IC50

[[record]]
compound = "CC1CCCN(CC(O)CN2CCN(CC(O)CN3CCCC(C)C3)CC2)C1 (configuration not stated)"
readoutkind = "IC50"
result = "> 13.2 µM"

[[record]]
compound = "CN(C)CCCNC(=O)c1nc(NC(=O)c2nc(NC(=O)c3nc(NC(=O)c4ccc(C(=O)Nc5cn(C)c(C(=O)Nc6cn(C)c(C(=O)Nc7cn(C)c(C(=O)NCCCN(C)C)n7)n6)n5)nc4)cn3C)cn2C)cn1C"
readoutkind = "IC50"
result = "> 50.1 µM"

[[record]]
compound = "Clc1cccc2[nH]c(-c3ccncc3)nc12"
readoutkind = "IC50"
result = "> 200 µM"

[[record]]
compound = "Cc1ccccc1N1OS(=O)(=O)CC1(C#N)c1ccccc1 (configuration not stated)"
readoutkind = "IC50"
result = "> 83.2 µM"

[[record]]
compound = "COc1cc2oc3c(C)c(=O)cc4oc(-c5ccccc5)cc(c2c2c1CCC(c1ccccc1)O2)c43 (configuration not stated)"
readoutkind = "IC50"
result = "> 4.07 µM"

[[record]]
compound = "Cc1nnc2n1N=C(c1ccc(-c3ccc([N+](=O)[O-])cc3)o1)CS2"
readoutkind = "IC50"
result = "> 5.89 µM"

[[record]]
compound = "CCOC1(NC(=O)N(C)C)C2CCCCC21 (configuration not stated)"
readoutkind = "IC50"
result = "> 200 µM"

